In this section, each of the molecules is paired with its reported Percent Effect.
- Target: Arginase-2, mitochondrial (Homo sapiens)
- Measurement notes: in vitro enzyme assay to detect the production of urea directly proportional to the activity of Arginase II
- Assay type: functional
- Parameters: scale not given: in the data most compounds retested in dose-response had high values
- Condition notes: 33.3 µM
Report the value in % with no unit label.

For the molecule `COc1cc(CN2CC[C@@]3(CCCO3)[C@@H](O)C2)ccc1F` , give its reported Percent Effect.
0.696

For the molecule `CCOC[C@H]1CC[C@H]2[C@H](CCN2C(=O)c2ccncc2F)O1` , give its reported Percent Effect.
3.72

For the molecule `Cn1cc(CN2C[C@@H]3COC[C@]3(C(=O)NCc3ccccn3)C2)cn1` , give its reported Percent Effect.
-54.3

For the molecule O=C(CCC1CCCC1)NCCn1nc(C2CCNC2)c2nccnc21 (stereo unspecified) , give its reported Percent Effect.
-5.34

For the molecule `CCCNC(=O)Cn1nc(C(C)C)c2cnn(C(C)(C)C)c2c1=O` , give its reported Percent Effect.
2.27

For the molecule `O=S(=O)(Cc1ccccc1)N1CCCn2cnc(CN3CCCC3)c2C1` , give its reported Percent Effect.
-57.5

For the molecule CC(=O)N1CCC(c2ccnc(Nc3cncnc3)n2)C1 (stereo unspecified) , give its reported Percent Effect.
0.699

For the molecule `CN(Cc1ccco1)[C@@H]1CN(Cc2ccco2)[C@@H]2CCCO[C@H]12` , give its reported Percent Effect.
3.03

For the molecule `Cc1ccc(NC(=O)N2CCN(Cc3noc(C4CC4)n3)CC2)cc1` , give its reported Percent Effect.
-4.09

For the molecule `CS(=O)(=O)N1CCC(O)(Cn2c(C3CC3)nc3ccccc3c2=O)CC1` , give its reported Percent Effect.
-0.232

For the molecule `CSCC[C@H](N)C(=O)NCc1cc2n(n1)CCCN(C(=O)C1CCC1)C2` , give its reported Percent Effect.
-0.442
